# Tested on: 616215-338-R-J1-PDC complex spheroid viability;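 further: spheroids exposed to agents for seven days before viability readout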
# experiment.description: Anticancer human tumor 616215-338-R-J1-PDC patient-derived colon adenocarcinoma cell line growth inhibition [RAS]; active means viability on the fitted dose curve at most 10% of control; inactive means the rest
# condition.info: second compound 3.16 µM; first compound 0.316 µM
Pick one and only one: active, inactive

Exercise: Could you kindly confirm the outcome this assay logged for CC(=O)OC12COC1CC(O)C1(C)C(=O)C(O)C3=C(C)C(OC(=O)C(O)C(NC(=O)OC(C)(C)C)c4ccccc4)CC(O)(C(OC(=O)c4ccccc4)C21)C3(C)C (stereo not given) + C#Cc1c(F)ccc2cc(O)cc(-c3ncc4c(N5CC6CCC(C5)N6)nc(OCC56CCCN5CC(F)C6)nc4c3F)c12 ?
Solution: inactive

Exercise: Could you kindly confirm the outcome this assay logged for Cc1nc(N2CCC3(CC2)COC(C)C3N)c(CO)nc1Sc1ccnc(N)c1Cl (stereo not given) + C#Cc1c(F)ccc2cc(O)cc(-c3ncc4c(N5CC6CCC(C5)N6)nc(OCC56CCCN5CC(F)C6)nc4c3F)c12 ?
Solution: inactive

Exercise: Could you kindly confirm the outcome this assay logged for O=C(c1ccc(F)c(F)c1Nc1ccc(I)cc1F)N1CC(O)([C@@H]2CCCCN2)C1 + C#Cc1c(F)ccc2cc(O)cc(-c3ncc4c(N5CC6CCC(C5)N6)nc(OCC56CCCN5CC(F)C6)nc4c3F)c12 ?
Solution: active

Exercise: Could you kindly confirm the outcome this assay logged for NC1c2ccccc2OC12CCN(c1cnc3c(N4CCCc5ncccc54)n[nH]c3n1)CC2 (stereo not given) + C#Cc1c(F)ccc2cc(O)cc(-c3ncc4c(N5CC6CCC(C5)N6)nc(OCC56CCCN5CC(F)C6)nc4c3F)c12 ?
Solution: inactive

Exercise: Could you kindly confirm the outcome this assay logged for CC(Nc1ccc2c(c1)OCCn1cc(N3C(=O)OCC3C(F)F)nc1-2)C(N)=O (stereo not given) + C#Cc1c(F)ccc2cc(O)cc(-c3ncc4c(N5CC6CCC(C5)N6)nc(OCC56CCCN5CC(F)C6)nc4c3F)c12 ?
Solution: inactive
